- Tested on: Zebrafish wild-type (WT) embryos
- Experiment: Absorption (internal concentration) of cephalosporins in zebrafish embryos by LC-MS/MS
- Protocol conditions: zebrafish embryos exposed to 2 mM drug solution, 6 hpf-3 dpf
Observed property: Internal concentration (mM × 10^-5)
One number for each entry, in mM × 10^-5.

Worked set:
O=C(Cn1cnnn1)N[C@@H]1C(=O)N2C(C(=O)O)=C(CSc3nncs3)CS[C@H]12 [Ceftezole]: 12.96
CCN1CCN(C(=O)N[C@@H](C(=O)N[C@@H]2C(=O)N3C(C(=O)O)=C(CSc4nnnn4C)CS[C@H]23)c2ccc(O)cc2)C(=O)C1=O [Cefoperazone]: 12.47

Next item in the queue.
I would be grateful if you could share the reported Internal concentration for CO/N=C(\C(=O)N[C@@H]1C(=O)N2C(C(=O)[O-])=C(C[n+]3cccc4c3CCC4)CS[C@H]12)c1csc(N)n1 [Cefpirome] .
1.67

###

- System: Zebrafish wild-type (WT) embryos
- Experiment: Absorption (internal concentration) of cephalosporins in zebrafish embryos by LC-MS/MS
- Protocol conditions: zebrafish embryos, 0.28, 1.0 and 2.0 mM, 6 hpf-3 dpf; higher k = more readily absorbed
Observed property: k-value (slope of the dose-internal concentration linear regression)

CO/N=C(\C(=O)N[C@@H]1C(=O)N2C(C(=O)[O-])=C(C[n+]3cccc4c3CCC4)CS[C@H]12)c1csc(N)n1 [Cefpirome]: < 5
CO[C@@]1(NC(=O)CSC(F)F)C(=O)N2C(C(=O)O)=C(CSc3nnnn3CCO)CO[C@@H]21 [Flomoxef]: 5.9111

Fill in: k-value (slope of the dose-internal concentration linear regression) of Cc1nnc(SCC2=C(C(=O)O)N3C(=O)[C@@H](NC(=O)Cn4cnnn4)[C@H]3SC2)s1 [Cefazolin] is ___
3.0851

Origin of the recorded values: paper PMC6361752
